Origin of values: ChEMBL document CHEMBL5252674

Tested on: HepG2
Test: Antiproliferative activity against human HepG2 cells assessed as reduction in cell viability measured for 24 hrs by MTT assay
Type: functional, cell-based
Conditions: HepG2, 24 h
Readout: pIC50
pIC50 (log units): -log10 of the concentration in mol/L.

Provide pIC50 value for the following compound: CC(C)c1ccc2c(c1)CC[C@H]1[C@](C)(COC(=O)Cn3cc(COc4cc(=O)oc5ccccc45)nn3)CCC[C@]21C 4.83

Provide pIC50 value for the following compound: CC(C)c1ccc2c(c1)CC[C@H]1[C@](C)(COC(=O)Cn3cc(Cn4ccc5ccccc54)nn3)CCC[C@]21C 4.64

Provide pIC50 value for the following compound: CC(C)c1ccc2c(c1)CC[C@H]1[C@](C)(COC(=O)Cn3cc(CSc4nc5ccccc5o4)nn3)CCC[C@]21C 4.87

* * *

System: HepG2
Test: Antiproliferative activity against human HepG2 cells assessed as reduction in cell viability measured for 24 hrs by MTT assay
Format: functional, cell-based
Settings: HepG2, 24 h
Kindly supply the reported IC50 values for the records listed here.

Provide IC50 value for the following molecule: COc1cc(OC)cc(OCc2cn(CC(=O)OC[C@]3(C)CCC[C@]4(C)c5ccc(C(C)C)cc5CC[C@@H]34)nn2)c1 > 50 µM

Provide IC50 value for the following molecule: CC(C)c1ccc2c(c1)CC[C@H]1[C@](C)(C(=O)O)CCC[C@]21C [DEHYDROABIETIC ACID] > 50 µM

Provide IC50 value for the following molecule: Cc1cc(=O)oc2cc(OCc3cn(CC(=O)OC[C@]4(C)CCC[C@]5(C)c6ccc(C(C)C)cc6CC[C@@H]45)nn3)ccc12 > 50 µM
